Assay type: physicochemical
Settings: pH 3.8; 2-8° C.; 96 h
Please go through the items and note down their % assay/degs, difference from T = 0.
Give bare numbers, in %.

smiles_data=CCC(CC)COC(=O)[C@H](C)N[P@](=O)(OC[C@H]1O[C@@](C(N)=O)(c2ccc3c(N)ncnn23)[C@H](O)[C@@H]1O)Oc1ccccc1 measured=0.00

State the recorded % assay/degs, difference from T = 0 for every item in the following list.
1. N#C[C@@]1(c2ccc3c(N)ncnn23)O[C@H](CO)[C@@H](O)[C@H]1O
2. N#C[C@@]1(c2ccc3c(N)ncnn23)O[C@H](COP(=O)(O)Oc2ccccc2)[C@@H](O)[C@H]1O
3. CCC(CC)COC(=O)[C@H](C)N[P@](=O)(OC[C@H]1O[C@@](C#N)(c2ccc3c(N)ncnn23)[C@H](O)[C@@H]1O)Oc1ccccc1

**Result**
0.00
0.01
0.1
